study target: UniProt:P32245
Sequence (P32245 whole entry): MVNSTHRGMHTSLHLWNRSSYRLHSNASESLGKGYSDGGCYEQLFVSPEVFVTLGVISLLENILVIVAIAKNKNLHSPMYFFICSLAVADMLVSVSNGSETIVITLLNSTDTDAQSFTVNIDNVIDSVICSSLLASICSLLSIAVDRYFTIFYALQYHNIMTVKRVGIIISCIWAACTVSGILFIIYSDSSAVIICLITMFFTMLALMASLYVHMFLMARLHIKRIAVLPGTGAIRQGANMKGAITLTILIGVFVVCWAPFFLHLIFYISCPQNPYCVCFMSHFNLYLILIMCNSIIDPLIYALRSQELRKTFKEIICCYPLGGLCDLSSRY
protocol summary: Agonist activity at human recombinant MC4 receptor expressed in BHK570 cells assessed as induction of […] accumulation in presence of 0.1% human serum albumin
metric: EC50 (nM)

| compound | measured result |
| --- | --- |
| CCCC[C@H](NC(=O)[C@H](CO)NC(=O)[C@H](CCCCN=C(N)N)NC(=O)[C@H](CCC(N)=O)NC(=O)[C@H](CO)NC(=O)CNC(C)=O)C(=O)N[C@H]1CCC(=O)NCCCC[C@@H](C(N)=O)NC(=O)[C@H](Cc2c[nH]c3ccccc23)NC(=O)[C@H](CCCN=C(N)N)NC(=O)[C@@H](Cc2ccccc2)NC(=O)[C@@H]2C[C@@H](O)CN2C1=O | 0.47 |
| CCCC[C@H](NC(=O)[C@H](CNC(C)C)NC(=O)[C@H](Cc1cnc[nH]1)NC(=O)[C@H](CCC(N)=O)NC(=O)[C@H](CO)NC(=O)CNC(=O)COCCOCCNC(=O)CCCCCCCCCCCCCCCc1nnn[nH]1)C(=O)N[C@H]1CCC(=O)NCCCC[C@@H](C(N)=O)NC(=O)[C@H](Cc2c[nH]c3ccccc23)NC(=O)[C@H](CCCNC(=N)N)NC(=O)[C@@H](Cc2ccccc2)NC(=O)[C@@H]2C[C@@H](O)CN2C1=O | 15 |
| CCCC[C@H](NC(=O)[C@H](CN(C)C)NC(=O)[C@H](Cc1cnc[nH]1)NC(=O)[C@H](CCC(N)=O)NC(=O)[C@H](CO)NC(=O)CNC(=O)COCCOCCNC(=O)CCCCCCCCCCCCCCCc1nnn[nH]1)C(=O)N[C@H]1CCC(=O)NCCCC[C@@H](C(N)=O)NC(=O)[C@H](Cc2c[nH]c3ccccc23)NC(=O)[C@H](CCCNC(=N)N)NC(=O)[C@@H](Cc2ccccc2)NC(=O)[C@@H]2C[C@@H](O)CN2C1=O | 130 |

Values from ChEMBL document CHEMBL2069212
